system: SH3BP2 (Homo sapiens)
Construct: made in house; host or cells: HEK293 (transient transfection), unpurified extract
Sequence (P78314 1-561): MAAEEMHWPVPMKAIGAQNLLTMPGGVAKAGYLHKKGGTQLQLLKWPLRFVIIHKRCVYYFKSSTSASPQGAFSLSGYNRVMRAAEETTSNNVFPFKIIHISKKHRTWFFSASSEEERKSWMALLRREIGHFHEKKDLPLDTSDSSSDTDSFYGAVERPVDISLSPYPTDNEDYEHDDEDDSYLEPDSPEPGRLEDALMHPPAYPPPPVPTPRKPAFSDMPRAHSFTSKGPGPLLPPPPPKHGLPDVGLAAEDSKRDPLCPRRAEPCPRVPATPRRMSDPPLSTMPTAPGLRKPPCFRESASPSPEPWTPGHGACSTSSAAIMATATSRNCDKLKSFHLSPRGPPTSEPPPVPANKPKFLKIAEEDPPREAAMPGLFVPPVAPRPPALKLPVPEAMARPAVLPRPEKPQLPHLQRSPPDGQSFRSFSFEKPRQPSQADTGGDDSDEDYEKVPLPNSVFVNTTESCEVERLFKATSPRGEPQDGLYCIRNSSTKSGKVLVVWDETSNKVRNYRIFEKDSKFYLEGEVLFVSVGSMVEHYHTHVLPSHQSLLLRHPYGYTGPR
experiment_notes: biochemical
Assay type: binding
reported_conditions: primary screen, 10 μM; read-out: percent of DMSO vehicle control
Reported remaining activity at 10 µM values follow for various molecules
Note to self: number, then unit, no commentary.

Check out these entries, answers already filled in.
# structure, remaining activity at 10 µM
records = [
    ("O=C(CCl)Nc1cccc(CNC(=O)[C@H](Cc2ccc(OP(=O)(O)O)cc2)NC(=O)Cc2ccc(F)cc2)c1", "109%"),
    ("C/C(=C\\C(=O)N[C@H](C(=O)N1CCC[C@H]1C(=O)N(c1ccccc1)c1ccc(I)cc1)C(C)(C)C)c1ccc(OP(=O)(O)O)cc1", "56.5%"),
    ("O=C(COc1ccc2cc(C(=O)Nc3ccccc3)ccc2c1)NCc1ccc(OP(=O)(O)O)c(OP(=O)(O)O)c1", "86%"),
]

Turning now to a further molecule:
What value of remaining activity at 10 µM has been reported for the following molecule? `CC(C)(C)[C@H](NC(=O)/C=C/c1ccc(OP(=O)(O)O)cc1)C(=O)N1CCC[C@H]1C(=O)N(c1ccccc1)c1ccc(I)cc1`
92.8%

---

system: SHF (Homo sapiens)
Construct: made in house; host or cells: HEK293 (transient transfection), unpurified extract
Sequence (Q7M4L6 1-423): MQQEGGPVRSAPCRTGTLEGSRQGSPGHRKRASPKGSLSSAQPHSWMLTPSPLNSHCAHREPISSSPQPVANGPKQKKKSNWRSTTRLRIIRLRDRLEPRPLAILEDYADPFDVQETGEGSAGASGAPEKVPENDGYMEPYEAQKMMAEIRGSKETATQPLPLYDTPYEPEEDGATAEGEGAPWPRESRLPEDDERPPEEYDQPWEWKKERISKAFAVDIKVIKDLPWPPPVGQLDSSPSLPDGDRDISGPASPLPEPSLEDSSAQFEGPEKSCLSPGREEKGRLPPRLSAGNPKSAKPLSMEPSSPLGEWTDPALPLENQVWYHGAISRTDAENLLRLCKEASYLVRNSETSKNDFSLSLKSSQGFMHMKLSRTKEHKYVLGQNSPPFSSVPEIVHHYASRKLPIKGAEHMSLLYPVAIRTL
experiment_notes: biochemical
Format: binding
reported_conditions: primary screen, 10 μM; read-out: percent of DMSO vehicle control
Reported remaining activity at 10 µM values follow for various compounds
Enter your answer as a number in %; do not include the unit.

# compound, remaining activity at 10 µM, %
rows = [
    ("C/C(=C\\C(=O)N[C@H](C(=O)N1CCC[C@H]1C(=O)N(c1ccccc1)c1ccc(I)cc1)C(C)(C)C)c1ccc(OP(=O)(O)O)cc1 [STAT6-IN-1]", 43.6),
    ("O=C(CCl)Nc1cccc(CNC(=O)[C@H](Cc2ccc(OP(=O)(O)O)cc2)NC(=O)Cc2ccc(F)cc2)c1 [MN551]", 103),
    ("CC(C)(C)[C@H](NC(=O)/C=C/c1ccc(OP(=O)(O)O)cc1)C(=O)N1CCC[C@H]1C(=O)N(c1ccccc1)c1ccc(I)cc1 [STAT6-IN-3]", 89.5),
]

Turning now to a further compound:
What value of remaining activity at 10 µM has been reported for the following compound? O=C(COc1ccc2cc(C(=O)Nc3ccccc3)ccc2c1)NCc1ccc(OP(=O)(O)O)c(OP(=O)(O)O)c1 [Stafib-1]
79.7

---

system: NCK1 (Homo sapiens, UniProt P16333)
Construct: the DNA-tagged SH2 domain concentrations used in this study were <0.1 nM; made in house; host or cells: HEK293 (transient transfection, unpurified extract)
experiment_notes: biochemical
Type: binding
reported_conditions: primary screen, 10 μM; read-out: percent of DMSO vehicle control
Reported remaining activity at 10 µM values follow for various compounds
Enter your answer as a number in %; do not include the unit.

Check out these entries, answers already filled in.
# compound, remaining activity at 10 µM [%]
data = [
    ("O=C(COc1ccc2cc(C(=O)Nc3ccccc3)ccc2c1)NCc1ccc(OP(=O)(O)O)c(OP(=O)(O)O)c1 [Stafib-1]", 53.7),
    ("CC(C)(C)[C@H](NC(=O)/C=C/c1ccc(OP(=O)(O)O)cc1)C(=O)N1CCC[C@H]1C(=O)N(c1ccccc1)c1ccc(I)cc1 [STAT6-IN-3]", 85.1),
    ("O=C(CCl)Nc1cccc(CNC(=O)[C@H](Cc2ccc(OP(=O)(O)O)cc2)NC(=O)Cc2ccc(F)cc2)c1 [MN551]", 67.4),
]

Checklist item: remaining activity at 10 µM tested on NCK1 (Homo sapiens, UniProt P16333), entry C/C(=C\C(=O)N[C@H](C(=O)N1CCC[C@H]1C(=O)N(c1ccccc1)c1ccc(I)cc1)C(C)(C)C)c1ccc(OP(=O)(O)O)cc1 [STAT6-IN-1] , value?
10.6

---

system: PTPN6(SH2dom.C-term.) (Homo sapiens)
Construct: SH2dom.C-term. denotes SH2 domain closest to C-terminus of protein; made in house; host or cells: HEK293 (transient transfection, unpurified extract)
Sequence (P29350 110-213 limits assumed): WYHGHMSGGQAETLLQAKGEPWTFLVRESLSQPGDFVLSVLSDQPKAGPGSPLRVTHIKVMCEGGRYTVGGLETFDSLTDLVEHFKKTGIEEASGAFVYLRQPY
experiment_notes: biochemical
Format: binding
reported_conditions: primary screen, 10 μM; read-out: percent of DMSO vehicle control
Reported remaining activity at 10 µM values follow for various compounds
Note to self: number, then unit, no commentary.

Check out these entries, answers already filled in.
# compound, reading
measured = [
    ("O=C(CCl)Nc1cccc(CNC(=O)[C@H](Cc2ccc(OP(=O)(O)O)cc2)NC(=O)Cc2ccc(F)cc2)c1 [MN551]", "147%"),
    ("C/C(=C\\C(=O)N[C@H](C(=O)N1CCC[C@H]1C(=O)N(c1ccccc1)c1ccc(I)cc1)C(C)(C)C)c1ccc(OP(=O)(O)O)cc1 [STAT6-IN-1]", "45.8%"),
    ("CC(C)(C)[C@H](NC(=O)/C=C/c1ccc(OP(=O)(O)O)cc1)C(=O)N1CCC[C@H]1C(=O)N(c1ccccc1)c1ccc(I)cc1 [STAT6-IN-3]", "136%"),
]

Turning now to a further compound:
What value of remaining activity at 10 µM has been reported for the following compound? O=C(COc1ccc2cc(C(=O)Nc3ccccc3)ccc2c1)NCc1ccc(OP(=O)(O)O)c(OP(=O)(O)O)c1 [Stafib-1]
179%

---

system: BLNK (Homo sapiens, UniProt Q8WV28)
Construct: the DNA-tagged SH2 domain concentrations used in this study were <0.1 nM; made in house; host or cells: HEK293 (transient transfection; unpurified extract)
Sequence (Q8WV28 346-453 limits assumed): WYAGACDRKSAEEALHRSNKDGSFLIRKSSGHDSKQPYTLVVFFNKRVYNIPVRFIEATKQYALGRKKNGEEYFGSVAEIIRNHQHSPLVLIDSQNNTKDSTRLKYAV
experiment_notes: biochemical
Format: binding
reported_conditions: primary screen, 10 μM; read-out: percent of DMSO vehicle control
Reported remaining activity at 10 µM values follow for various compounds
Enter your answer as a number in %; do not include the unit.

What value of remaining activity at 10 µM has been reported for the following compound? `O=C(CCl)Nc1cccc(CNC(=O)[C@H](Cc2ccc(OP(=O)(O)O)cc2)NC(=O)Cc2ccc(F)cc2)c1`
101

What value of remaining activity at 10 µM has been reported for the following compound? `CC(C)(C)[C@H](NC(=O)/C=C/c1ccc(OP(=O)(O)O)cc1)C(=O)N1CCC[C@H]1C(=O)N(c1ccccc1)c1ccc(I)cc1`
145

What value of remaining activity at 10 µM has been reported for the following compound? `C/C(=C\C(=O)N[C@H](C(=O)N1CCC[C@H]1C(=O)N(c1ccccc1)c1ccc(I)cc1)C(C)(C)C)c1ccc(OP(=O)(O)O)cc1`
116

What value of remaining activity at 10 µM has been reported for the following compound? `O=C(COc1ccc2cc(C(=O)Nc3ccccc3)ccc2c1)NCc1ccc(OP(=O)(O)O)c(OP(=O)(O)O)c1`
158

---

Reported percent of DMSO vehicle control at 10 µM values follow for various compounds
system: VAV3 (Homo sapiens, UniProt Q9UKW4)
Construct: made in house; host or cells: HEK293 (transient transfection), unpurified extract
Sequence (Q9UKW4 whole entry): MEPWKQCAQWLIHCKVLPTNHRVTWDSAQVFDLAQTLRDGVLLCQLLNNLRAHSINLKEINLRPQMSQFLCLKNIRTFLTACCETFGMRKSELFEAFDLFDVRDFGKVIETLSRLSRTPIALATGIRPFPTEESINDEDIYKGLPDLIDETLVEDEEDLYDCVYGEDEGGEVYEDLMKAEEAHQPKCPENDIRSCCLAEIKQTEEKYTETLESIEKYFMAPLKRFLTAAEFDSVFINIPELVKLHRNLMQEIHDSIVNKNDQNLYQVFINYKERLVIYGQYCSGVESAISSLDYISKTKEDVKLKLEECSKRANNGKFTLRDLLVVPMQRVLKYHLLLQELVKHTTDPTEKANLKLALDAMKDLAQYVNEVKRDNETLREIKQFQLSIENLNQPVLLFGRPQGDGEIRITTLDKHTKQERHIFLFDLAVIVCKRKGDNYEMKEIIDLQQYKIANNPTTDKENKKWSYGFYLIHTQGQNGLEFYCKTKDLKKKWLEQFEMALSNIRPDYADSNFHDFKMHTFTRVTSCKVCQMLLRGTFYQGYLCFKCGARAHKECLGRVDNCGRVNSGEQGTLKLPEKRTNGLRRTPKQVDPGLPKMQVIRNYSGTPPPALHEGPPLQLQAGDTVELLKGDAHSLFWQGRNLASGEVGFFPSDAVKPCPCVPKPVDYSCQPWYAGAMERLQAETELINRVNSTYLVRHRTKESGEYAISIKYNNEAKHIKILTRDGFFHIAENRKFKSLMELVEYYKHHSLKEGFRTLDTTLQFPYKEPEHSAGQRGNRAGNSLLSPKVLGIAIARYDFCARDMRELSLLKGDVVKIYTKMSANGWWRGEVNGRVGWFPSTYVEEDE
experiment_notes: biochemical
Assay type: binding
reported_conditions: read-out: percent of DMSO vehicle control
Non-standard residues stand in square brackets, D forms with d. Residues, ends and D or L forms follow the SMILES beside them. *: point of attachment. pY = N[C@@H](Cc1ccc(OP(=O)(O)O)cc1)C(=O)O; Caffeoyl = O=C(/C=C/c1ccc(O)c(O)c1)*
Note to self: number, then unit, no commentary.

# compound, system, reading
measured = [
    ("NC(=O)CC[C@H](NC(=O)[C@@H]1CC[C@@H]2CCN(C(=O)CCCCCC#Cc3cccc4c3CN(C3CCC(=O)NC3=O)C4=O)C[C@H](NC(=O)c3cc4cc(C(F)(F)P(=O)(O)O)ccc4[nH]3)C(=O)N21)C(=O)NC(c1ccccc1)c1ccccc1 (stereo partly shown)", "VAV3 (Homo sapiens, UniProt Q9UKW4)", "82.1%"),
    ("CC(=O)N1CC[C@H]2CC[C@@H](C(=O)N[C@@H](CCC(N)=O)C(=O)NC(c3ccccc3)c3ccccc3)N2C(=O)[C@@H](NC(=O)c2cc3cc(C(F)(F)P(=O)(O)O)ccc3[nH]2)C1", "VAV3 (Homo sapiens, UniProt Q9UKW4)", "130%"),
    ("CC[C@H](C)[C@H](NC(=O)[C@H](CCC(=O)O)NC(=O)[C@H](CCC(=O)O)NC(=O)[C@H](Cc1ccc(OP(=O)(O)O)cc1)NC(=O)/C=C/c1ccc(O)c(O)c1)C(=O)N[C@@H](CCC(=O)O)C(=O)O [Caffeic acid-pYEEIE] (Caffeoyl-[pY]EEIE-OH)", "VAV3 (Homo sapiens, UniProt Q9UKW4)", "0.4%"),
]

Turning now to a further compound:
What value of percent of DMSO vehicle control at 10 µM has been reported for the following compound? `CC(=O)N[C@@H](Cc1ccc(CP(=O)(O)O)cc1)C(=O)NC1(C(=O)N[C@@H](CC(N)=O)C(=O)NCCCc2c(O)ccc3ccccc23)CCCCC1`
21.7%
